Task for the reader: assign each of the following substances its reported APOE RNA (% control) Cortex.
system: human APOE RNA; assay: Activity in APOE C57BL/6NTac-Apoeem7250 knock-in mice, single ICV bolus, 4 weeks (Example 10); assay type: in vivo; conditions: Cortex; C57BL/6NTac-Apoeem7250 knock-in mice, single ICV bolus 300 μg, 4 weeks (Table 22)
Strand notation (5' to 3'): a small letter for the sugar, then the base; units joined by * are phosphorothioate-linked, units joined directly phosphodiester-linked; [ ] holds rarer units or linkages, { } end groups; capitals alone tell only the bases. [ms] = mesyl phosphoramidate linkage; e = 2'-O-(2-methoxyethyl) (MOE); k = constrained ethyl (cEt); [5mC] = 5-methylcytosine; d = 2'-deoxy (DNA)
Please answer using a numeric value trailed by its unit.

[[record]]
substance = "1693102: 6-10-4 MOE gapmer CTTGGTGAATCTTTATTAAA, linkages ssssoszzzssssszssss (e[5mC]*eT*eT*eG*eGeT*dG[ms]dA[ms]dA[ms]dT*d[5mC]*dT*dT*dT*dA[ms]dT*eT*eA*eA*eA) [compound 1693102]"
result = "55 % control"

[[record]]
substance = "1736513 (e[5mC]*eTeT*eG*eG*kT*dG[ms]dA[ms]dA[ms]dT*d[5mC]*dT*dT*dT*dA[ms]dT*eT*eA*eA*eA; antisense) [Compound 1736513]"
result = "42 % control"


For each of the substances below, state APOE RNA (% control) Cortex.
1. 1736492 (e[5mC]*eTeT*eG*eG*eT*dG[ms]dA[ms]dA[ms]dT*d[5mC]*dT*dT*dT*dA[ms]dT*kT*eA*eA*eA; antisense) [Compound 1736492]
2. 1693101: 6-10-4 MOE gapmer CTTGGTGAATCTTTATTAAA, linkages sssssozzzssssszssss (e[5mC]*eT*eT*eG*eG*eTdG[ms]dA[ms]dA[ms]dT*d[5mC]*dT*dT*dT*dA[ms]dT*eT*eA*eA*eA) [compound 1693101]

Out:
1: 45 % control; 2: 57 % control

----------
test system: human APOE RNA; assay: Dose-dependent inhibition of human APOE RNA in HepG2 cells, electroporation, 50,000 cells per well, RT-PCR normalized to GAPDH (Example 4, Tables 8-10); assay type: cell-based; settings: 205 nM; HepG2, electroporation, 24-hour treatment
Strand notation (5' to 3'): a small letter for the sugar, then the base; units joined by * are phosphorothioate-linked, units joined directly phosphodiester-linked; [ ] holds rarer units or linkages, { } end groups; capitals alone tell only the bases. [ms] = mesyl phosphoramidate linkage; k = constrained ethyl (cEt); [5mC] = 5-methylcytosine; d = 2'-deoxy (DNA)
Use 70 % UTC as the dividing line for APOE RNA (% UTC), with the line itself on the criterion met side and lower values as criterion not met.

In: Dear colleague, could you confirm whether 1746807 (k[5mC]*kT*dT[ms]dG[ms]dG[ms]kT*dG[ms]dA[ms]dA[ms]dT*d[5mC]*dT*dT*dT*dA[ms]dT*dT[ms]kA*kA*kA; antisense) [Compound 1746807] has APOE RNA (% UTC) at or above 70 % UTC?
Out: criterion met

In: Dear colleague, could you confirm whether 1746794 (k[5mC]*kT*kT*dG[ms]dG[ms]dT[ms]dG[ms]dA[ms]dA[ms]dT*d[5mC]*dT*dT*dT*dA[ms]dT*kT*dA[ms]kA*kA; antisense) [Compound 1746794] has APOE RNA (% UTC) at or above 70 % UTC?
Out: criterion not met

In: Dear colleague, could you confirm whether 1746812 (k[5mC]*dT[ms]dT[ms]dG[ms]kG*kT*dG[ms]dA[ms]dA[ms]dT*d[5mC]*dT*dT*dT*dA[ms]dT*dT[ms]kA*kA*kA; antisense) [Compound 1746812] has APOE RNA (% UTC) at or above 70 % UTC?
Out: criterion met

In: Dear colleague, could you confirm whether 1747051 (k[5mC]*kT*dT[ms]kG*dG[ms]kT*dG[ms]dA[ms]dA[ms]dT*d[5mC]*dT*dT*dT*dA[ms]dT*kT*dA[ms]dA[ms]kA; antisense) [Compound 1747051] has APOE RNA (% UTC) at or above 70 % UTC?
Out: criterion met
